- System: PC-3 prostate
- assay details: NCI tumour cell line growth inhibition, 48 h

{"compound": "COc1nc2c(c(=O)[nH]1)N=C(c1ccc([N+](=O)[O-])cc1)CC(c1ccccc1)N2 (stereo not given)", "TGI": "> 100 µM"}
{"compound": "C/C(=C\\COP(=O)(O)CP(=O)(O)O)CC/C=C(\\C)CNc1ccccc1", "TGI": "> 100 µM"}
{"compound": "Cc1cccc2c(=O)c3cccc(CC(=O)O)c3oc12", "TGI": "> 100 µM"}
{"compound": "FC(F)(F)c1ccc(-c2cnc(-c3nn[nH]n3)nc2NC2CCCCCC2)cc1", "TGI": "> 10 µM"}
{"compound": "CC(C(=O)NCNC(=O)c1ccccc1)C(=O)NCc1ccccc1 (stereo not given)", "TGI": "> 100 µM"}

----------
- System: MDA-N
- assay details: NCI tumour cell line growth inhibition, 48 h
outcome measure: TGI

{"molecule": "NS(=O)(=O)c1ccc(NCc2cccc3c(=O)c4ccc(Cl)cc4oc23)cc1", "outcome measure": "TGI", "value observed": "> 80.2 µM"}
{"molecule": "CC(=O)O[C@@H]1[C@H]2O[C@H]2[C@H]2O[C@@]2(COC(=O)c2ccccc2)[C@H]1OC(C)=O", "outcome measure": "TGI", "value observed": "> 100 µM"}
{"molecule": "COc1ccc2c(c1)SC1=Nc3sc4cc(OC)ccc4[n+]3CN12", "outcome measure": "TGI", "value observed": "> 100 µM"}
{"molecule": "CN(C)CCC(C#N)(c1ccccc1)c1ccccc1", "outcome measure": "TGI", "value observed": "> 100 µM"}
{"molecule": "COC(=O)[C@@H](N1C(=O)c2ccccc2C1=O)C1(C)CC(Cl)=NO1 (stereo not given in full)", "outcome measure": "TGI", "value observed": "> 100 µM"}

----------
- System: MCF7 breast
- assay details: NCI tumour cell line growth inhibition, 48 h
# TGI per entry

{"compound": "CCc1c(N=[N+]=[N-])c2ccccc2oc1=O", "TGI": "> 100 µM"}
{"compound": "CCN(CC)CCCC(C)Nc1ccnc2cc(OC)ccc12 (centres undefined)", "TGI": "> 100 µM"}
{"compound": "COc1cc(Nc2nc(NS(=O)(=O)c3cc(C)c(Cl)cc3S)n[nH]2)cc(OC)c1OC", "TGI": "> 100 µM"}
{"compound": "CC1(C)CC[C@]2(C(=O)O)CC[C@]3(C)C(=CC[C@@H]4[C@@]5(C)C/C(=C/c6cccnc6)[C@H](O)C(C)(C)[C@@H]5CC[C@]43C)[C@@H]2C1", "TGI": "> 100 µM"}
{"compound": "CNC(=S)N/N=C/CSC/C=N/NC(=S)NC", "TGI": "> 100 µM"}
{"compound": "CN(C)CCCCN1c2ccccc2Sc2ccc(N=[N+]=[N-])cc21", "TGI": "5.26 µM"}
{"compound": "COc1cc(F)c(F)c(F)c1C(=O)c1cnc(NC2CCN(S(C)(=O)=O)CC2)nc1N", "TGI": "> 25 µM"}
{"compound": "Cc1c(CNc2ccc(Cl)c(Cl)c2Cl)cnc2nc(N)nc(N)c12", "TGI": "> 46.7 µM"}
{"compound": "CC(=O)OCC1OC(NC(=S)Nn2c(-c3ccccc3)nc3ccccc3c2=O)C(OC(C)=O)C(OC(C)=O)C1OC(C)=O (centres undefined)", "TGI": "> 100 µM"}

----------
- Test system: SF-539 CNS
- assay details: NCI tumour cell line growth inhibition, 48 h
# TGI per entry

{"compound": "Cc1cc(C)c(CNC(=O)c2cc(Cl)c3c(c2C)O[C@@](C)(C2CCC(N(C)C)CC2)O3)c(=O)[nH]1 (some centres not stated)", "assayed target": "SF-539 CNS", "TGI": "> 100 µM"}
{"compound": "CSC(SC)=C1Sc2cccc(Cl)c2S1", "assayed target": "SF-539 CNS", "TGI": "> 100 µM"}
{"compound": "CCO/C=N\\C1=C(C#N)SC2=N/C(=C\\c3ccco3)C(=O)N21", "assayed target": "SF-539 CNS", "TGI": "> 100 µM"}
{"compound": "COc1cccc(O)c1-c1cc(=O)c2c(O)c(OC)c(OC)c(OC)c2o1", "assayed target": "SF-539 CNS", "TGI": "> 100 µM"}
{"compound": "O=C(Nc1cc(Cl)ccc1Cl)c1cc2ccccc2oc1=O", "assayed target": "SF-539 CNS", "TGI": "> 100 µM"}
{"compound": "COc1ccc(-c2cc(-c3ccc(Cl)cc3)c(C#N)c(=O)n2CCCCCC(=O)Nc2ccccc2N)cc1", "assayed target": "SF-539 CNS", "TGI": "> 100 µM"}
{"compound": "CC1(C)CC[C@]2(C(=O)O)CC[C@]3(C)C(=CC[C@@H]4[C@@]5(C)C/C(=C/c6cccnc6)[C@H](O)C(C)(C)[C@@H]5CC[C@]43C)[C@@H]2C1", "assayed target": "SF-539 CNS", "TGI": "24 µM"}
{"compound": "COC(=O)[C@]1(CCC(C)=O)C(=O)C=CN([C@H](C)c2ccccc2)[C@@H]1Cc1ccc(OC)c(OCc2ccccc2)c1I", "assayed target": "SF-539 CNS", "TGI": "32.9 µM"}
{"compound": "CCCCc1c2c([n+]([O-])c3c1CCCC3)CCCC2", "assayed target": "SF-539 CNS", "TGI": "> 100 µM"}
{"compound": "COc1cc(-c2nn(-c3cccc(NC(=O)NCCNC(=O)c4ccccc4)c3)cc2-c2ccncc2)ccc1Cl", "assayed target": "SF-539 CNS", "TGI": "7.44 µM"}
{"compound": "CC(C(=O)NCNC(=O)c1ccccc1)C(=O)NCc1ccccc1 (configuration not stated)", "assayed target": "SF-539 CNS", "TGI": "> 100 µM"}
{"compound": "O=C(/C=C/c1c[nH]c2ccccc12)c1ccccc1O", "assayed target": "SF-539 CNS", "TGI": "25.1 µM"}
{"compound": "CCCCP1(=O)C=CC(Cl)=C(C)C1 (configuration not stated)", "assayed target": "SF-539 CNS", "TGI": "> 100 µM"}
{"compound": "COc1ccc2c(c1)SC1=Nc3sc4cc(OC)ccc4[n+]3CN12", "assayed target": "SF-539 CNS", "TGI": "> 100 µM"}
{"compound": "CCCCCCCCCCCCNC(=O)N[C@H](C(=O)N[C@H]1/C=C/OCCNC(=O)/C=C/[C@H](C(C)C)NC1=O)C(C)C", "assayed target": "SF-539 CNS", "TGI": "18.4 µM"}
{"compound": "O=P(c1ccccc1)(c1ccccc1)C1CC=C2CCCCCC2C1 (configuration not stated)", "assayed target": "SF-539 CNS", "TGI": "> 10 µM"}
{"compound": "CCN(CC)CCCC(C)Nc1ccnc2cc(OC)ccc12 (configuration not stated)", "assayed target": "SF-539 CNS", "TGI": "34.4 µM"}
{"compound": "COc1ccc(Cc2c3cc(OC)c(OC)cc3cc[n+]2C)cc1", "assayed target": "SF-539 CNS", "TGI": "> 53.1 µM"}
{"compound": "CC(=O)C1=C(C)N2C(=NC3=C(CCc4ccccc43)C2c2ccc(Cl)cc2)S1 (configuration not stated)", "assayed target": "SF-539 CNS", "TGI": "> 100 µM"}
{"compound": "c1ccc2sc(C3(N4CCCCCC4)CCCCC3)cc2c1", "assayed target": "SF-539 CNS", "TGI": "46.1 µM"}
{"compound": "N#CC(NNC(=O)c1ccccc1O)c1ccccc1O (configuration not stated)", "assayed target": "SF-539 CNS", "TGI": "40.9 µM"}
{"compound": "COc1cccc(-c2cc(-c3ccc(Nc4nc(Nc5ccc(Cl)cc5)nc(Nc5ccc(Cl)cc5)n4)cc3)nc(N)c2C#N)c1", "assayed target": "SF-539 CNS", "TGI": "4.1 µM"}
{"compound": "BrC(/C=N/Nc1nnc(-c2ccccc2)c(-c2ccccc2)n1)C(Br)c1ccccc1 (configuration not stated)", "assayed target": "SF-539 CNS", "TGI": "> 100 µM"}
{"compound": "O=c1oc2cc(O)ccc2c(O)c1C(c1ccc(/C=C/c2ccccc2)cc1)c1c(O)c2ccc(O)cc2oc1=O", "assayed target": "SF-539 CNS", "TGI": "> 100 µM"}
{"compound": "COc1cc(F)c(F)c(F)c1C(=O)c1cnc(NC2CCN(S(C)(=O)=O)CC2)nc1N", "assayed target": "SF-539 CNS", "TGI": "6.06 µM"}
{"compound": "COC(=O)c1c(O)ccc2c1c1c(n2CCc2ccccc2)C(=O)c2ccccc2C1", "assayed target": "SF-539 CNS", "TGI": "45.2 µM"}
{"compound": "O=C(N=Nc1c(O)[nH]c2c(Cl)cc(Cl)cc12)C(=O)Nc1cccc(C(F)(F)F)c1", "assayed target": "SF-539 CNS", "TGI": "> 100 µM"}
{"compound": "CCn1c(O)c(C(=O)Nc2cccs2)c(=O)n(CC)c1=S", "assayed target": "SF-539 CNS", "TGI": "33.1 µM"}
{"compound": "CC(=O)Nc1ccc(/C=C/C(=O)c2sc(-n3nc(-c4ccccc4)cc3-c3ccccc3)nc2C)cc1", "assayed target": "SF-539 CNS", "TGI": "> 100 µM"}
{"compound": "CC1SC(c2ccc(OCc3ccccc3)cc2)N(NC(=O)C(O)(c2ccccc2)c2ccccc2)C1=O (configuration not stated)", "assayed target": "SF-539 CNS", "TGI": "42.6 µM"}
{"compound": "NC(C(=O)O)C(O)c1cnc[nH]1 (configuration not stated)", "assayed target": "SF-539 CNS", "TGI": "> 100 µM"}
{"compound": "O=C1N(c2ccccc2)C2(O)C(=O)c3ccccc3C2(O)N1c1ccccc1 (configuration not stated)", "assayed target": "SF-539 CNS", "TGI": "> 100 µM"}
